system: panel of 140 standard cancer cell lines; test: ProliFiler-140 cancer cell line screen (CellTiterGlo, 72 h); type: cell-based; settings: read-out: IC50 [M] (ProliFiler-140); SCLC-21H (Lung)
ENDPOINT_NAME: IC50 (M)
Supply the numeric figure in M, leaving out any unit text.

**Q:** So what's the measured IC50 for this one? COc1cc2cc(C(=O)N3C[C@@H](CCl)c4c3cc(OC(=O)N3CCN(C(=O)CCC(=O)N5CCN(C)CC5)[C@H]5CSSC[C@H]53)c3ccccc43)[nH]c2c(OC)c1OC [P-SS66C-CBI-TMI]
**A:** 2.6e-08

* * *

test system: NCI-60 standardized human tumor cell line panel; assay: cells; format: cell-based; conditions: OVCAR-5 (OV) cell line; log10 reductive index vs P-CC60
ENDPOINT_NAME: NCI-60 screening: Log(RedIndex)
Field format: numeric only.

Use these answered entries as a reference point.
**Q:** So what's the measured NCI-60 screening: Log(RedIndex) for this one? COc1cc2cc(C(=O)N3C[C@@H](CCl)c4c3cc(OC(=O)N3CCN(C(=O)CCC(=O)N5CCN(C)CC5)[C@H]5CSSC[C@H]53)c3ccccc43)[nH]c2c(OC)c1OC [P-SS66C-CBI-TMI]
**A:** 1.3

**Q:** So what's the measured NCI-60 screening: Log(RedIndex) for this one? COc1cc2cc(C(=O)N3CC(CCl)c4c3cc(OC(=O)N3CCN(C)C5CSSCC53)c3ccccc43)[nH]c2c(OC)c1OC (mixture of isomers) [Me-SS66T-CBI-TMI]
**A:** 2.15

**Q:** So what's the measured NCI-60 screening: Log(RedIndex) for this one? `COc1cc2cc(C(=O)N3C[C@@H](CCl)c4c3cc(OC(=O)N(CCC(=O)N3CCN(C)CC3)[C@H]3CCSSC3)c3ccccc43)[nH]c2c(OC)c1OC`
**A:** 1.22

Now turn to the next molecule.
**Q:** So what's the measured NCI-60 screening: Log(RedIndex) for this one? COc1cc2cc(C(=O)N3CC(CCl)c4c3cc(OC(=O)N3CCN(C)C5CSSCC53)c3ccccc43)[nH]c2c(OC)c1OC (mixture of isomers) [Me-SS66C-CBI-TMI]
**A:** 1.26

* * *

tested on: panel of 140 standard cancer cell lines; test: ProliFiler-140 cancer cell line screen (CellTiterGlo, 72 h); format: cell-based; conditions: SK-LU-1 (Lung); listed as Dox; read-out: IC50 [M] (ProliFiler-140)
ENDPOINT_NAME: IC50

**Q:** So what's the measured IC50 for this one? COc1cccc2c1C(=O)c1c(O)c3c(c(O)c1C2=O)C[C@@](O)(C(=O)CO)C[C@@H]3O[C@H]1C[C@H](N)[C@H](O)[C@H](C)O1 [doxorubicin, reference compound]
**A:** 2.67e-07 M

* * *

Items are presented alongside their recorded NCI-60 screening: Log(RedIndex).
tested on: NCI-60 standardized human tumor cell line panel; assay: cells; type: cell-based; settings: cell line MCF7 (BR:MCF7); TMI sheet
Field format: numeric only.

**Q:** So what's the measured NCI-60 screening: Log(RedIndex) for this one? COc1cc2cc(C(=O)N3CC(CCl)c4c3cc(OC(=O)N3CCN(C)C5CSSCC53)c3ccccc43)[nH]c2c(OC)c1OC (mixture of isomers) [Me-SS66C-CBI-TMI]
**A:** 1.05

Next:
**Q:** So what's the measured NCI-60 screening: Log(RedIndex) for this one? `COc1cc2cc(C(=O)N3C[C@@H](CCl)c4c3cc(OC(=O)N(CCC(=O)N3CCN(C)CC3)[C@H]3CCSSC3)c3ccccc43)[nH]c2c(OC)c1OC`
**A:** 0.95

**Q:** So what's the measured NCI-60 screening: Log(RedIndex) for this one? COc1cc2cc(C(=O)N3CC(CCl)c4c3cc(OC(=O)N3CCN(C)C5CSSCC53)c3ccccc43)[nH]c2c(OC)c1OC (mixture of isomers) [Me-SS66T-CBI-TMI]
**A:** 1.78

**Q:** So what's the measured NCI-60 screening: Log(RedIndex) for this one? COc1cc2cc(C(=O)N3C[C@@H](CCl)c4c3cc(OC(=O)N3CCN(C(=O)CCC(=O)N5CCN(C)CC5)[C@H]5CSSC[C@H]53)c3ccccc43)[nH]c2c(OC)c1OC [P-SS66C-CBI-TMI]
**A:** 1.33

* * *

system: panel of 140 standard cancer cell lines; experiment: ProliFiler-140 cancer cell line screen (CellTiterGlo, 72 h); assay type: cell-based; settings: Homo sapiens, EFO-27, EFO-27 (Ovary); read-out: IC50 [M] (ProliFiler-140)
ENDPOINT_NAME: IC50 (M)
Supply the numeric figure in M, leaving out any unit text.

**Q:** So what's the measured IC50 for this one? COc1cccc2c1C(=O)c1c(O)c3c(c(O)c1C2=O)C[C@@](O)(C(=O)CO)C[C@@H]3O[C@H]1C[C@H](N)[C@H](O)[C@H](C)O1 [doxorubicin, reference compound]
**A:** 2.9e-07

* * *

tested on: panel of 140 standard cancer cell lines; assay: ProliFiler-140 cancer cell line screen (CellTiterGlo, 72 h); format: cell-based; conditions: read-out: IC50 [M] (ProliFiler-140); JIMT-1 (Breast)
ENDPOINT_NAME: IC50 (M)
Supply the numeric figure in M, leaving out any unit text.

**Q:** Provide value of IC50 for this record tested with panel of 140 standard cancer cell lines: COc1cc2cc(C(=O)N3C[C@@H](CCl)c4c3cc(OC(=O)N3CCN(C(=O)CCC(=O)N5CCN(C)CC5)[C@H]5CSSC[C@H]53)c3ccccc43)[nH]c2c(OC)c1OC [P-SS66C-CBI-TMI]
**A:** 1.04e-07

* * *

tested on: panel of 140 standard cancer cell lines; assay: ProliFiler-140 cancer cell line screen (CellTiterGlo, 72 h); assay type: cell-based; details: EFO-27 (Ovary); listed as Dox; read-out: IC50 [M] (ProliFiler-140)
ENDPOINT_NAME: IC50 (M)
Supply the numeric figure in M, leaving out any unit text.

**Q:** So what's the measured IC50 for this one? COc1cccc2c1C(=O)c1c(O)c3c(c(O)c1C2=O)C[C@@](O)(C(=O)CO)C[C@@H]3O[C@H]1C[C@H](N)[C@H](O)[C@H](C)O1 [doxorubicin, reference compound]
**A:** 2.93e-07

* * *

test system: NCI-60 standardized human tumor cell line panel; experiment: cells; assay type: cell-based; conditions: SNB-19; read-out: GI50
ENDPOINT_NAME: GI50 (nM)
Supply the numeric figure in nM, leaving out any unit text.

Use these answered entries as a reference point.
**Q:** Provide value of GI50 for this record tested with NCI-60 standardized human tumor cell line panel: COc1cc2cc(C(=O)N3CC(CCl)c4c3cc(OC(=O)N3CCN(C)C5CSSCC53)c3ccccc43)[nH]c2c(OC)c1OC (mixture of isomers) [Me-SS66C-CBI-TMI]
**A:** 220

**Q:** Provide value of GI50 for this record tested with NCI-60 standardized human tumor cell line panel: `COc1cc2cc(C(=O)N3C[C@@H](CCl)c4c3cc(OC(=O)N(CCC(=O)N3CCN(C)CC3)C3CCCCC3)c3ccccc43)[nH]c2c(OC)c1OC`
**A:** 2200

**Q:** Provide value of GI50 for this record tested with NCI-60 standardized human tumor cell line panel: COc1cc2cc(C(=O)N3C[C@@H](CCl)c4c3cc(OC(=O)N(C)CCSSCCN3CCOCC3)c3ccccc43)[nH]c2c(OC)c1OC [SS00M-CBI-TMI]
**A:** 28

**Q:** Provide value of GI50 for this record tested with NCI-60 standardized human tumor cell line panel: COc1cc2cc(C(=O)N3CC(CCl)c4c3cc(OC(=O)N3CCN(C)C5CSSCC53)c3ccccc43)[nH]c2c(OC)c1OC (mixture of isomers) [Me-SS66T-CBI-TMI]
**A:** 16

Next:
**Q:** Provide value of GI50 for this record tested with NCI-60 standardized human tumor cell line panel: `COc1cc2cc(C(=O)N3C[C@@H](CCl)c4c3cc(OC(=O)N(CCC(=O)N3CCN(C)CC3)[C@H]3CCSSC3)c3ccccc43)[nH]c2c(OC)c1OC`
**A:** 250

* * *

tested on: panel of 140 standard cancer cell lines; experiment: ProliFiler-140 cancer cell line screen (CellTiterGlo, 72 h); type: cell-based; conditions: Homo sapiens, T47D, read-out: IC50 [M] (ProliFiler-140), T-47D (Breast)
ENDPOINT_NAME: IC50 (M)
Supply the numeric figure in M, leaving out any unit text.

**Q:** So what's the measured IC50 for this one? COc1cc2cc(C(=O)N3C[C@@H](CCl)c4c3cc(OC(=O)N3CCN(C(=O)CCC(=O)N5CCN(C)CC5)[C@H]5CSSC[C@H]53)c3ccccc43)[nH]c2c(OC)c1OC [P-SS66C-CBI-TMI]
**A:** 9.8e-08
